Test: in vitro
Settings: PAMPA, pH 7.4
Description: Permeability of compound in PBS buffer assessed as permeability coefficient at pH 7.4 at 200 uM incubated for 5 hrs by PAMPA based LC-MS analysis
Readout: Papp at 5 h, 200 µM (×10⁻⁶ cm/s)
I only need the number, in ×10⁻⁶ cm/s, no unit after it.

O=c1c2ccccc2oc2ccc(OCCCCCN3CCCCCC3)cc12
5.6

Moving on to another compound below.
Ask: Look at this compound and give its reported Papp at 5 h, 200 µM. "O=c1c2cc(Cl)ccc2oc2ccc(OCCCCCN3CCCCCC3)cc12"
Result: 2.2

----------
Biological target: Histamine H3 receptor (Homo sapiens)
Sequence (Q9Y5N1 whole entry): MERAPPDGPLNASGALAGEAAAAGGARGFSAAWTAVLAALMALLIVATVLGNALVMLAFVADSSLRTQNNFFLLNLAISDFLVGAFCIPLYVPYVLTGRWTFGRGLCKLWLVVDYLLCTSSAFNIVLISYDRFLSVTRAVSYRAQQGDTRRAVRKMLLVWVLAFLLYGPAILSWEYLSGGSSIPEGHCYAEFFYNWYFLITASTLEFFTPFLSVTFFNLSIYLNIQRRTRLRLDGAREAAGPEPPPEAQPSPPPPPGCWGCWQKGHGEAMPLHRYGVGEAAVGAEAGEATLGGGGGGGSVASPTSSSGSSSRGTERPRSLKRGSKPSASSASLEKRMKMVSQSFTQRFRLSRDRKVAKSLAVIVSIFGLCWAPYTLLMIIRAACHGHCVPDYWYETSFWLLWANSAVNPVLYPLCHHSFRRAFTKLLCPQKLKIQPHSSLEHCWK
Kindly note that classification relies on Ki with these boundaries: bottom bin = under 0.2 µM, middle bin = from 0.2 µM up to 0.5 µM, top bin = 0.5 µM and over

Example cases with answers are listed next.
CC1CCCN(CCCCCOc2ccc3oc4ccccc4c(=O)c3c2)C1 (configuration not stated)
bottom bin
O=c1c2ccccc2oc2ccc(OCCCCCN3CCCCC3)cc12
bottom bin
CC1CCCN(CCCCCCOc2ccc3oc4ccccc4c(=O)c3c2)C1 (configuration not stated)
bottom bin
O=c1c2cc(Cl)ccc2oc2ccc(OCCCCCCN3CCCCC3)cc12
middle bin
CC1CCN(CCCCCOc2ccc3oc4cc(Cl)ccc4c(=O)c3c2)CC1
middle bin
CC1CCCN(CCCCCOc2ccc3oc4ccc(Cl)cc4c(=O)c3c2)C1 (configuration not stated)
bottom bin
CC1CCN(CCCCCCOc2ccc3oc4ccccc4c(=O)c3c2)CC1
bottom bin
CC1CCCN(CCCCCCOc2ccc3oc4cc(Cl)ccc4c(=O)c3c2)C1 (configuration not stated)
top bin

Ask: Please classify: "O=c1c2ccccc2oc2ccc(OCCCCCCN3CCCCC3)cc12"
Result: top bin

Ask: And what about the molecule CC1CCCN(CCCCCCOc2ccc3oc4ccc(Cl)cc4c(=O)c3c2)C1 (configuration not stated) ?
Result: middle bin

Ask: And what about the molecule "O=c1c2ccc(Cl)cc2oc2ccc(OCCCCCCN3CCCCCC3)cc12" ?
Result: top bin
